Origin of the recorded values: patent US8791132B2

# target-under-test: rat adrenergic α1B receptor (Rattus norvegicus)
# Construct: rat adrenergic α1B receptor obtained from Wistar Rat liver; from tissue; host or cells: Wistar rat liver
# Sequence (P15823 1-515): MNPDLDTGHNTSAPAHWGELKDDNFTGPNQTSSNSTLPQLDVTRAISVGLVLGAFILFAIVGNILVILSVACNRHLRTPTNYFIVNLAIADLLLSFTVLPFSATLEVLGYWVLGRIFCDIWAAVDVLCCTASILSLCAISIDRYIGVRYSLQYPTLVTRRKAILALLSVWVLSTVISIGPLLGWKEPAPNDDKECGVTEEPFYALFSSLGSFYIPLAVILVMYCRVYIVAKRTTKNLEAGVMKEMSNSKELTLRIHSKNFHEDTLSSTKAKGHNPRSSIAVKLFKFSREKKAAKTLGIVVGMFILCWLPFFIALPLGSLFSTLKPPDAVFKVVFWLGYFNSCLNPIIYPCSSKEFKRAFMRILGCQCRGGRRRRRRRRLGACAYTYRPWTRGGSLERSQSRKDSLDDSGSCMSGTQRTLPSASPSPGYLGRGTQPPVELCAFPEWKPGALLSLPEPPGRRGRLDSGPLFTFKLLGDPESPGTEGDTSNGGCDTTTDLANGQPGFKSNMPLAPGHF
# assay-comment: Radioligand binding, adrenergic α1B ([3H]Prazosin)
# assay-conditions: 0.1 μM compound; 0.1 µM
endpoint-name: Percentage inhibition of ligand binding, Adrenergic α1B (%)

Examples with answers:
CNC(Cn1c2c(c3cc(C)ccc31)CN(C)CC2)c1ccc(F)cc1 (single isomer, unassigned) [II-12a]    26
CC(=O)OC(C)(Cn1c2c(c3cc(C)ccc31)CN(C)CC2)c1cccnc1 (single isomer, unassigned) [II-15b]    5
OCCN1CCc2c(c3cc(Cl)ccc3n2CC(O)c2cccnc2)C1 (single isomer, unassigned) [II-94b]    7
Cc1ccc2c(c1)c1c(n2C(C)C(O)c2ccccc2)CCN(C)C1 (single isomer, unassigned) [II-95a]    32
Cc1ccc2c(c1)c1c(n2CC(C)(c2cnccn2)N(C)C)CCN2CCCC12 (single isomer, unassigned) [II-6a]    66

[a] Cc1ccc2c(c1)c1c(n2CC(O)c2ccccc2F)CN(C)CC1 (single isomer, unassigned) [II-49b]
[b] Cc1ccc2c(c1)c1c(n2CC(N)c2ccc(F)cc2)CCN(C)C1 (single isomer, unassigned) [II-11a]
Query: Decide: a or b , by lowest recorded Percentage inhibition of ligand binding, Adrenergic α1B. Please reply using the label of the selected record.
Response: b

---

# target-under-test: human recombinant adrenergic α1D receptor (Homo sapiens)
# Construct: expressed in transfected cells; host or cells: HEK-293
# Sequence (P25100 1-572): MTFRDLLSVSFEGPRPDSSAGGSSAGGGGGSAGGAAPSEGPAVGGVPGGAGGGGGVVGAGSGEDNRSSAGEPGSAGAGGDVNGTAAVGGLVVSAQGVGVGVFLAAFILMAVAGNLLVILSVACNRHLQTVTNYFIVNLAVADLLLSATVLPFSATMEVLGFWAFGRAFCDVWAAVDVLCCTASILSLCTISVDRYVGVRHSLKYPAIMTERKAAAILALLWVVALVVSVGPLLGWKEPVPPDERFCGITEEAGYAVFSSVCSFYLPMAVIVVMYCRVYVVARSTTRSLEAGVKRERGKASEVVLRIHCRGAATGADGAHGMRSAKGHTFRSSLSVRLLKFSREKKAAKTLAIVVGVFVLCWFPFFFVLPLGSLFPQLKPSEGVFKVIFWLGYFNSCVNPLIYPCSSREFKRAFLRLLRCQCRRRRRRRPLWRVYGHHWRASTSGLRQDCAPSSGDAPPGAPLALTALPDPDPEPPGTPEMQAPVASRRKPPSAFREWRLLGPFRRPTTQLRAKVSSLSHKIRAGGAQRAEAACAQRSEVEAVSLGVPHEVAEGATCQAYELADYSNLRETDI
# assay-comment: Radioligand binding, adrenergic α1D ([3H]Prazosin)
# assay-conditions: read-out: Percentage inhibition of ligand binding, Adrenergic α1D (0.1 μM), compound at 0.1 μM; [3H]Prazosin; repeat datapoints each shown
endpoint-name: inhibition at 0.1 µM (%)

Cc1cnc2c(c1)c1c(n2CCc2ccc(C)nc2)CC2CCCN2C1 (centres unmarked) [II-235]    28

[P] C/C(=C\n1c2c(c3cc(C)ccc31)CN(C)CC2)c1ccc(CO)nc1 [compound 125]
[Q] CC(=O)Nc1ccc(/C(C)=C\n2c3c(c4cc(C)ccc42)CN(C)CC3)cn1 [compound 111]
Query: Of the pair P and Q , name the member with the lesser recorded inhibition at 0.1 µM. In your reply, give the label of the chosen option.
Response: P

[a] Cc1ccc2c(c1)c1c(n2CC(=O)c2ccc(F)cc2)CCN(C)C1 [compound 94]
[b] CN1CCc2c(c3ccccc3n2CCc2ccccc2)C1 [compound 182]
Query: Given the two records a and b , choose the one whose inhibition at 0.1 µM value is lower. Reply briefly: the label of your chosen item.
Response: a
(a: 10%, b: 16%)
